B1: HDV Ribozyme (parent)
chain: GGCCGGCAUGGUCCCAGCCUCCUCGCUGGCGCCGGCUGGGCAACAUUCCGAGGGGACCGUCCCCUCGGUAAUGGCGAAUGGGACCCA

Variants of: B1
experimentNotes: self-cleavage, relative activity (ratio to wild type); higher = more cleavage; co-transcriptional
Label condition met when self-cleavage >= 0.2; otherwise condition not met.

# check: self-cleavage of G39C C48G is greater than or equal to 0.2
condition met

# bool: self-cleavage of G35A C44G >= 0.2
condition not met

# bool: self-cleavage of U23C G55U >= 0.2
condition met

Assess whether reported self-cleavage for C30A C63U sits at 0.2 or higher.
condition met

Hello, I need to know if G11A U47G has measured self-cleavage not below 0.2. Thanks!
condition met

Hello, I need to know if C14G G28C has measured self-cleavage not below 0.2. Thanks!
condition not met

API: above_or_equal(metric=self-cleavage, cutoff=0.2) for item U23A A78U
condition met

Check the entry U12A C18A : does self-cleavage equal or exceed 0.2?
condition not met

Determine whether this variant has self-cleavage no lower than 0.2: C32U C84G
condition met

Does the variant G39C G81C have recorded self-cleavage that is 0.2 or more?
condition not met

Reported self-cleavage at or above 0.2? G28C G53U
condition not met

Could you please find out whether A16G C75U has self-cleavage that meets 0.2 or exceeds it?
condition not met

// inclusive: self-cleavage at least 0.2? input: A16C G73C
condition met

Confirm if self-cleavage reported for the variant G17C G82A is 0.2 or above.
condition not met

Does the variant A51U C62U have recorded self-cleavage that is 0.2 or more?
condition met

Entry U65G U79A : is its self-cleavage no less than 0.2?
condition met

Quick check: does C26G C63U have self-cleavage greater than or equal to 0.2?
condition met

Has A8G G17C a recorded self-cleavage greater than or equal to 0.2?
condition not met

Hi, just wondering whether U37C G73C shows self-cleavage of 0.2 or higher.
condition met

Given the entry G6A C24U , answer whether its self-cleavage meets or surpasses 0.2.
condition met

Threshold query (self-cleavage >= 0.2) on U72C G80U
condition not met

Check the entry G6A G80A : does self-cleavage equal or exceed 0.2?
condition not met

Check this variant for self-cleavage at or above 0.2: G17C G39C
condition not met

Is it the case that G35U G52U has self-cleavage reaching or exceeding 0.2?
condition met

API: above_or_equal(metric=self-cleavage, cutoff=0.2) for item C33G C44G
condition not met

Please check the record C61G U72G and state if its self-cleavage is at or above 0.2.
condition met

Threshold query (self-cleavage >= 0.2) on A42U C75G
condition not met

Is self-cleavage at least 0.2? Consider C7G G54A
condition met

Please check the record C61G A83C and state if its self-cleavage is at or above 0.2.
condition met

Determine whether this variant has self-cleavage no lower than 0.2: C14A C58U
condition met

# check: self-cleavage of G53C U60A is greater than or equal to 0.2
condition met

Given C63U G80U , state whether its self-cleavage is at least 0.2.
condition met

Does the reported self-cleavage for A71G C85G fall at or above the 0.2 mark?
condition met

Assess whether reported self-cleavage for G35U A87U sits at 0.2 or higher.
condition met

Hello, I need to know if U65C C84G has measured self-cleavage not below 0.2. Thanks!
condition met

Record U12C G29C ; criterion: self-cleavage no lower than 0.2. Met?
condition not met

Hello, I need to know if C66A G74U has measured self-cleavage not below 0.2. Thanks!
condition met

Does the variant C61U G74U have recorded self-cleavage that is 0.2 or more?
condition met

Given A56G C75G , state whether its self-cleavage is at least 0.2.
condition not met

Tell me whether self-cleavage is at least 0.2 here: G11A C21U
condition not met

# bool: self-cleavage of G54U A78U >= 0.2
condition met

Could you please find out whether C30U C48A has self-cleavage that meets 0.2 or exceeds it?
condition met

Reported self-cleavage at or above 0.2? C15A G55U
condition met

Could you please find out whether G29C C30G has self-cleavage that meets 0.2 or exceeds it?
condition not met

Entry A43U C63U : is its self-cleavage no less than 0.2?
condition met

Item G34C A70G with self-cleavage of 0.2 or above?
condition not met

Determine whether measured self-cleavage meets or exceeds 0.2 for G17C C19G
condition not met

Test whether the variant G31A U69C records self-cleavage of 0.2 or higher.
condition met

Is self-cleavage for G31C C32U at or above 0.2?
condition not met

Assess whether reported self-cleavage for G6C C21U sits at 0.2 or higher.
condition not met

Please check the record U37A C58A and state if its self-cleavage is at or above 0.2.
condition met

Evaluate G25C U65C : self-cleavage at minimum 0.2?
condition not met

Does self-cleavage meet or surpass 0.2 for G2A C14U ?
condition not met

Is reported self-cleavage greater than or equal to 0.2 here: G5C C32A
condition not met

Is it the case that C33U G39U has self-cleavage reaching or exceeding 0.2?
condition met

self-cleavage >= 0.2 for U46A A56U ?
condition met

Exam item: decide whether the reported self-cleavage for C26U C66U is at least 0.2.
condition met

State whether the measured self-cleavage reaches 0.2, counting equality as reaching it, for A8C A51G
condition met

Quick check, self-cleavage >= 0.2? G6A C57U
condition met

Quick check: does C48A G76C have self-cleavage greater than or equal to 0.2?
condition met

Does self-cleavage meet or surpass 0.2 for G34U C75G ?
condition met

Check the entry C22A C84A : does self-cleavage equal or exceed 0.2?
condition not met

State whether the measured self-cleavage reaches 0.2, counting equality as reaching it, for A43U G76C
condition not met

Has C19A C32U a recorded self-cleavage greater than or equal to 0.2?
condition not met

Confirm if self-cleavage reported for the variant G1A C61G is 0.2 or above.
condition not met

Exam item: decide whether the reported self-cleavage for U46A A87G is at least 0.2.
condition met

Identify whether the reported self-cleavage of the following variant is 0.2 or greater: G34C A45G
condition not met

Determine whether this variant has self-cleavage no lower than 0.2: C57U G59C
condition met

Decide: self-cleavage of G11U A78G >= 0.2?
condition not met

Could you tell me if the measured self-cleavage of C4G U37G reaches 0.2 or more?
condition not met

Does the reported self-cleavage for C14A C21G fall at or above the 0.2 mark?
condition not met

I'd appreciate it if you could say whether C63U C75A has self-cleavage at least equal to 0.2.
condition not met

Does C36A C64A have a reported self-cleavage of at least 0.2?
condition not met

Textbook exercise: given the entry G2U A83C , state whether its self-cleavage is greater than or equal to 0.2.
condition not met

Threshold query (self-cleavage >= 0.2) on U12A C21G
condition met

Please indicate if the recorded self-cleavage for G59A A83G meets or exceeds 0.2.
condition met

Answer whether self-cleavage of G40C C63A is greater than or equal to 0.2.
condition met

API: above_or_equal(metric=self-cleavage, cutoff=0.2) for item C13A G67U
condition not met

Decide: is the reported value of self-cleavage for C33U G67C equal to or greater than 0.2?
condition met

Determine whether measured self-cleavage meets or exceeds 0.2 for G59A G81U
condition met

In plain terms: is recorded self-cleavage at least 0.2 for G25C G34U ?
condition not met
